Attribution: the supplement of paper PMC10307832

// reported relative viability for each item listed
System: NCI-H1993
Experiment: relative viability (nuclei count vs DMSO), 5 days (fraction); higher = more cells survive
Conditions: first compound 0.08 µM

Below are worked cases with known answers.
{"compound": "Cc1cnc(-c2cnc(NCCNc3ccc(C#N)cn3)nc2-c2ccc(Cl)cc2Cl)[nH]1 + C[C@@H](Oc1cc(-c2cnn(C3CCNCC3)c2)cnc1N)c1c(Cl)ccc(F)c1Cl [Crizotinib] (partner 1 µM)", "readout_name": "relative viability", "result": 0.804}
{"compound": "O=c1[nH]c2ccccc2n1C1CCN(CCCC(c2ccc(F)cc2)c2ccc(F)cc2)CC1 [Pimozide] + CC(=O)c1c(C)c2cnc(Nc3ccc(N4CCNCC4)cn3)nc2n(C2CCCC2)c1=O [Palbociclib] (partner 0.5 µM)", "readout_name": "relative viability", "result": 0.616}
{"compound": "Cc1cnc(-c2cnc(NCCNc3ccc(C#N)cn3)nc2-c2ccc(Cl)cc2Cl)[nH]1 + Cc1nc(NC(=O)N2CCC[C@H]2C(N)=O)sc1-c1ccnc(C(C)(C)C(F)(F)F)c1 [Alpelisib] (partner 2 µM)", "readout_name": "relative viability", "result": 0.715}
{"compound": "O=c1[nH]c2ccccc2n1C1CCN(CCCC(c2ccc(F)cc2)c2ccc(F)cc2)CC1 [Pimozide] + CS(=O)(=O)CCNCc1ccc(-c2ccc3ncnc(Nc4ccc(OCc5cccc(F)c5)c(Cl)c4)c3c2)o1 [Lapatinib] (partner 2 µM)", "readout_name": "relative viability", "result": 0.894}

Now for another entry.
Assay NCI-H1993, sample O=c1[nH]c2ccccc2n1C1CCN(CCCC(c2ccc(F)cc2)c2ccc(F)cc2)CC1 [Pimozide] + Cc1nc(NC(=O)N2CCC[C@H]2C(N)=O)sc1-c1ccnc(C(C)(C)C(F)(F)F)c1 [Alpelisib] (partner 2 µM) , relative viability read: 0.707
